Recorded pIC50 values for a group of compounds are listed next.
experimental.system: Prostaglandin G/H synthase 2 (Mus musculus, UniProt Q05769)
Sequence (Q05769 whole entry): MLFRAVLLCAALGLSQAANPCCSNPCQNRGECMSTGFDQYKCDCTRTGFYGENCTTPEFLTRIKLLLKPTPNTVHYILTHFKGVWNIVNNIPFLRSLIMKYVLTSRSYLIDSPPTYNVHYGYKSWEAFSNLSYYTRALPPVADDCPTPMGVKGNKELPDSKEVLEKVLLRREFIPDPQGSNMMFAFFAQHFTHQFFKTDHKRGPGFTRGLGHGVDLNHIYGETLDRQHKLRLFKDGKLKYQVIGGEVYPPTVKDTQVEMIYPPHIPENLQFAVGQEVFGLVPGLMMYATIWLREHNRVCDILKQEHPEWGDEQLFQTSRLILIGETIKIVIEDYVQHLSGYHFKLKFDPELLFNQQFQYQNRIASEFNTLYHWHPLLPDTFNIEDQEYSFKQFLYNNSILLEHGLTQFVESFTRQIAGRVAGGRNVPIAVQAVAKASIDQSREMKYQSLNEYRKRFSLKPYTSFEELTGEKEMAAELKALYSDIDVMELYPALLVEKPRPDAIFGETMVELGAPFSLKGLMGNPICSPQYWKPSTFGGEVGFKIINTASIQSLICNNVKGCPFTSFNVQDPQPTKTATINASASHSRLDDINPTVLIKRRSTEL
pIC50: −log10 of the molar value.

{"columns": ["smiles", "measurement"],
 "data": [
  ["Cc1ccc(C2=C(c3cccc(F)c3)COC2=O)cc1", "< 4.60"]
]}

Determine from records and report pIC50 for COc1ccc(C2=C(c3cccc(Cl)c3F)C(=O)OC2)cc1
< 4.60

Look up pIC50 of Cc1ccc(C2=C(c3ccnc(Cl)c3)C(=O)OC2)cc1 and report it.
< 4.60

Return pIC50 for the following compound: O=C1OCC(c2ccc(F)cc2)=C1c1ccc(Br)cc1
< 4.60

For the compound Cc1ccc(C2=C(c3ccc(Oc4ccc(F)cc4)cc3)C(=O)OC2)cc1 , report pIC50.
< 4.60

Please report pIC50 for the following compound: O=C1OCC(c2ccccc2)=C1c1ccc(Oc2ccc(F)cc2)cc1
< 4.60

----------
experimental.system: Prostaglandin G/H synthase 1 (Homo sapiens, UniProt P23219)
Sequence (P23219 whole entry): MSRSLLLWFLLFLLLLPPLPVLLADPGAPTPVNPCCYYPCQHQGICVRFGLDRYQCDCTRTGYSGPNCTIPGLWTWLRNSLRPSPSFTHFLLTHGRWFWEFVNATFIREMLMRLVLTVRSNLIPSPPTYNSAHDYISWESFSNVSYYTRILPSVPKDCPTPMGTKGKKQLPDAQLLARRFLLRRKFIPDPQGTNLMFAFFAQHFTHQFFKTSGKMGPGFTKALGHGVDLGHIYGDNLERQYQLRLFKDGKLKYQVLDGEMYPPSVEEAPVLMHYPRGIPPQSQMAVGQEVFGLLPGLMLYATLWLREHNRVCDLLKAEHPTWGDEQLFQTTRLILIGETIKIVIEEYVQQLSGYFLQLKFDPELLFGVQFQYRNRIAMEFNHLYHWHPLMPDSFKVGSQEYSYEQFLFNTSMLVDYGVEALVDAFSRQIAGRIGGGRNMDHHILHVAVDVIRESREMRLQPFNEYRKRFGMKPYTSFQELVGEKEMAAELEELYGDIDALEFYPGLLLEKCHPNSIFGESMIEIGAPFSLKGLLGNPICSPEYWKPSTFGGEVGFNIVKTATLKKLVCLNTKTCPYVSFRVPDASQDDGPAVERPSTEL
test.details: Inhibition of COX-1 in human OVCAR3 cells by cell-based assay
Listed below: IC50 values for each entry.
Just the number please, in nM, no unit attached.

Consider the reported IC50 for these compounds:
{"columns": ["smiles", "IC50 (nM)"],
 "data": [
  ["Cc1ccc(C2=C(c3ccc(F)cc3)C(=O)OC2)cc1", 780],
  ["O=C1OCC(c2ccccc2)=C1c1ccc(F)cc1", 2800]
]}

Switching to the query record.
Complete the entry with IC50 for COc1ccc(C2=C(c3ccc(F)cc3)C(=O)OC2)cc1
360

----------
experimental.system: Prostaglandin G/H synthase 2 (Mus musculus) (UniProt Q05769)
Sequence (whole entry): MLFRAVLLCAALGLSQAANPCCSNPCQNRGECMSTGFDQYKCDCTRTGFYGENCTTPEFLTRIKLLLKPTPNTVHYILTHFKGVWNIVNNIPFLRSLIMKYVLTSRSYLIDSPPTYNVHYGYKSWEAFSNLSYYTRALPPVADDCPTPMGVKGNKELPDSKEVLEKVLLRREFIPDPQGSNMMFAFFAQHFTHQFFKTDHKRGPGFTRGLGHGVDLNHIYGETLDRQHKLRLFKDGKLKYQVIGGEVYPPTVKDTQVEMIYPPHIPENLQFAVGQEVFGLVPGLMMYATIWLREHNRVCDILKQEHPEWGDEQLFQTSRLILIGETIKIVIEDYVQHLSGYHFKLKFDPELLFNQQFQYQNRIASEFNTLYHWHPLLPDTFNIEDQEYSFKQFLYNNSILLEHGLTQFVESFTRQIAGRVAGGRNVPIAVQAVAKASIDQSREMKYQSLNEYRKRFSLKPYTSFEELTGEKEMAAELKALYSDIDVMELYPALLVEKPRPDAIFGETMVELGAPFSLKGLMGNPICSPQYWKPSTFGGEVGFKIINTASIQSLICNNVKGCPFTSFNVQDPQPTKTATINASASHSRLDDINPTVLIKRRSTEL
test.details: Inhibition of mouse COX-2 assessed as inhibition of [14C]arachidonic acid to radiolabeled prostaglandins measured as residual activity preincubated for 20 mins by TLC-based assay
In this section we review reported Activity values for a set of molecules.

{"columns": ["smiles", "experimental.system", "Activity"],
 "data": [
  ["COc1ccc(C2=C(c3ccc(I)cc3)C(=O)OC2)cc1", "Prostaglandin G/H synthase 2 (Mus musculus) (UniProt Q05769)", "> 50%"],
  ["COc1ccc(C2=C(c3ccc(F)cc3)C(=O)OC2)cc1", "Prostaglandin G/H synthase 2 (Mus musculus) (UniProt Q05769)", "> 50%"],
  ["COc1ccc(C2=C(c3cccc(Cl)c3F)C(=O)OC2)cc1", "Prostaglandin G/H synthase 2 (Mus musculus) (UniProt Q05769)", "> 50%"]
]}

Turning now to a further molecule:
Provide only the value of recorded Activity for COc1ccc(C2=C(c3cccc(F)c3)C(=O)OC2)cc1
> 50%
